# TEST SYSTEM: Concanavalin-A (Canavalia ensiformis)
# PROTOCOL TEXT: ConA small-molecule binders, primary screen, artefact control for SMM control protein annotation, biochemical, small-molecule microarray, Alexa647 label, 635 nm (AID 1127);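 also: z combines 667 nm emission intensity with signal-to-noise across three replicate slides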
# MEASUREMENT CONDITIONS: ConA-A647 binding fluorescence, higher = more signal
Collected composite z-score values appear next to each entry.

Study these solved cases before continuing.
> print(dat)
                                   compound  assay.value
1  C=CC[C@@]1(C(=O)N2CCOCC2)N=C(c2ccc(OCCCO)cc2)O[C@@H]1c1ccccc1CN=[N+]=[N-]         1.16
2  CC1=C([C@H](O)CCc2ccccc2)[C@H](CO)[C@@H]2C(=O)N(C)C(=O)[C@@H]2C1        0.476
3  CC(C)OC(=O)C=C1C[C@@H](c2ccc(C(F)(F)F)cc2)O[C@@H](c2ccc(C(F)(F)F)cc2)O1         1.09
4  CC=CC(O)C1C=CC2C(=O)N(c3ccccc3)C(=O)C2N1Nc1ccccc1F (stereo not drawn)       0.0905
5  COC(=O)CCCCCCC(=O)Nc1ccc(NC(=O)CCCC[P+](c2ccccc2)(c2ccccc2)c2ccccc2)cc1       0.0666

What the record says about NC(=O)N1C(=O)C2C(C1=O)C1C=C(CCCO)C2C(c2cccs2)N1Cc1cccc(OC(F)(F)F)c1 (stereo not drawn) : composite z-score is 0.434

The compound identified as O=C1C2C=CC(C(O)c3ccccc3)N(Nc3ccccc3F)C2C(=O)N1c1ccccc1 (stereo not drawn) registered its composite z-score at 0.532

# composite z-score (compound: COc1ccc([Si](C)(C)[C@@H]2[C@@H](CCn3cc([C@H](O)c4ccccc4)nn3)O[C@]3(C(=O)N(Cc4ccc(N5CCC5=O)cc4)c4ccccc43)[C@H]2C)cc1 ) is 0.469

----------
# PROTOCOL TEXT: P. aeruginosa biofilm formation inhibitors, primary screen, PAO1 strain, BacTiter-Glo luminescence, LB-PBS (AID 1144)
# MEASUREMENT CONDITIONS: 12 h, higher = more signal
Let's look at some molecules and their measured z-score.
Enter the number alone.

MOLECULE	z-score
COc1cc2c(cc1O)C(C)N(Cc1ccc([N+](=O)[O-])o1)CC2 (centres undefined)	-0.158
COCCOC(=O)N1C(=O)[C@@]2(c3cc(C#Cc4ccc(OC)cc4)ccc31)[C@H](C(=O)Nc1nc3ccccc3s1)[C@H]1C(=O)O[C@H](c3ccccc3)[C@H](c3ccccc3)N1[C@@H]2c1ccc(OCCO)cc1	0.133
CCCC[C@@H]1C[C@H]1[C@@H](NC(=O)Cc1ccccc1)c1ccc(-c2ccccc2)cc1	1.65

Consider the additional molecule presented here.
Item: CC(C)[Si](C#C[Si](C(C)C)(C(C)C)C(C)C)(O[C@H](C)c1cn([C@H](CO)Cc2ccccc2)nn1)C(C)C | z-score: -1.52

----------
# PROTOCOL TEXT: E. coli growth modulation, two-sided OD650, primary screen, E. coli filamentation project, strain DRC41, 24 h (AID 1093);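 also: MC1000 strain lacking acrAB efflux and sulA so SOS filamentation is blocked; test concentration not given here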
# MEASUREMENT CONDITIONS: OD650, 24 h, higher = more signal, called active from +8 up or from −8 down
Measured z-score, listed per entry.
Give the figure only, with no unit attached.

// known answers, use as guide
> print(dat)
                                smiles.data  test.readout  assay.value
1  O=C(CS)NCCCCCCNC(=O)[C@H]1C[C@H]2C(=O)N[C@@H](Cc3ccccc3)C(=O)N2[C@H]1c1ccc(O)cc1       z-score      -0.0352
2  CCCCC(=C=CC[C@@H](O)c1ccccc1OCCO)C[C@@H](O)COCc1ccccc1       z-score         1.31
3  [N-]=[N+]=NCc1ccccc1C[C@@]1(C(=O)N2CCCCC2)N=C(c2ccc(OCCCO)cc2)O[C@@H]1c1ccccc1       z-score        0.685

Now take the following compound into account.
Reported z-score ( [N-]=[N+]=NCc1ccccc1[C@H]1OC(c2ccc(OCCCO)cc2)=N[C@@]1(CCS(=O)(=O)c1ccccc1)C(=O)N1CCCCC1 ) = -0.334
